Catalogue of compounds with associated pIC50
test system: HCV replicon 1B; test: Cell-based HCV Replicon Assay B, replicon 1B; conditions: Hepatitis C virus
Scale explanation: pIC50 corresponds to minus log10 of a concentration expressed in moles per litre.

COC(=O)NC(C(=O)N1[C@@H]2C[C@@H]2C[C@H]1c1ncc(-c2ccc3c(c2)cc2n3C(c3cnc(C4(C)CCCC4)s3)Oc3cc(-c4cnc([C@@H]5CCCN5C(=O)[C@@H](NC(=O)OC)C(C)C)[nH]4)cc(F)c3-2)[nH]1)C1C[C@@H](C)O[C@@H](C)C1 (single isomer, unassigned) [Compound 473]; 11.55
COC(=O)N[C@H](C(=O)N1CCC[C@H]1c1ncc(-c2cc(C)c3c(c2)OC(c2cnc(C4CC4)s2)n2c-3cc3cc(-c4cnc([C@@H]5CCCN5C(=O)[C@@H](NC(=O)OC)C(C)C)[nH]4)ccc32)[nH]1)C(C)C (single isomer, unassigned) [Compound 200]; 11.52

Next compound, please.
Recorded pIC50 of COC(=O)NC(C(=O)N1[C@@H]2C[C@@H]2C[C@H]1c1ncc(-c2ccc3c(c2)cc2n3C(c3cnc(C4(C)CC4)s3)Oc3cc(-c4cnc([C@@H]5CCCN5C(=O)[C@@H](NC(=O)OC)C(C)C)[nH]4)cc(F)c3-2)[nH]1)C1C[C@@H](C)O[C@@H](C)C1 (single isomer, unassigned) [Compound 463] , please.
11.55

* * *

Catalogue of compounds with associated IC50
tested on: HCV replicon 1AY93H; experiment: Cell-based HCV Replicon Assay A, replicon 1AY93H; conditions: read-out: 1A Y93H IC50, replicon 1AY93H
Enter your answer as a number in pM; do not include the unit.

CCc1ncc(C2Oc3cc(-c4cnc([C@@H]5CCCN5C(=O)[C@@H](NC(=O)OC)C(C)C)[nH]4)cc(F)c3-c3cc4cc(-c5cnc([C@@H]6CCCN6C(=O)C(NC(=O)OC)C6CCOC(C)(C)C6)[nH]5)ccc4n32)s1 (single isomer, unassigned) [Compound 40]; 3.9
COC(=O)NC(C(=O)N1[C@@H]2C[C@@H]2C[C@H]1c1ncc(-c2ccc3c(c2)cc2n3C(c3cnc(C4CC4)s3)Oc3cc(-c4cnc([C@@H]5CCCN5C(=O)[C@@H](NC(=O)OC)C(C)C)[nH]4)cc(F)c3-2)[nH]1)C(C)(C)F (single isomer, unassigned) [Compound 27]; 3.7
COC(=O)NC(C(=O)N1CCC[C@H]1c1ncc(-c2ccc3c(c2)cc2n3C(c3cnc(C4CCC4)s3)Oc3cc(-c4cnc([C@@H]5CCCN5C(=O)[C@@H](NC(=O)OC)C(C)C)[nH]4)cc(C)c3-2)[nH]1)C1C[C@@H](C)O[C@@H](C)C1 (single isomer, unassigned) [Compound 219]; 13

Recorded IC50 of COC(=O)NC(C(=O)N1CCC[C@H]1c1ncc(-c2ccc3c(c2)cc2n3C(c3cnc(C4(C)CC4)s3)Oc3cc(-c4cnc([C@@H]5CCCN5C(=O)[C@@H](NC(=O)OC)C(C)C)[nH]4)cc(F)c3-2)[nH]1)C1CCOC(C)(C)C1 (single isomer, unassigned) [Compound 459] , please.
296

* * *

system: HCV replicon 1B; test: Cell-based HCV Replicon Assay B, replicon 1B; conditions: Hepatitis C virus
valueType: pIC50
Scale explanation: pIC50 corresponds to minus log10 of a concentration expressed in moles per litre.

COC(=O)NC(C(=O)N1CCC[C@H]1c1ncc(-c2ccc3c(c2)cc2n3C(c3cnc(C4(C)CCCC4)s3)Oc3cc(-c4cnc([C@@H]5CCCN5C(=O)[C@@H](NC(=O)OC)C(C)C)[nH]4)cc(F)c3-2)[nH]1)C1CCOC(C)(C)C1 (single isomer, unassigned); 11.47

Next molecule, please.
Recorded pIC50 of COC(=O)NC(C(=O)N1[C@@H]2C[C@@H]2C[C@H]1c1ncc(-c2ccc3c(c2)cc2n3C(c3cnc(C4CCC4)s3)Oc3cc(-c4cnc([C@@H]5CCCN5C(=O)[C@@H](NC(=O)OC)C(C)C)[nH]4)cc(C)c3-2)[nH]1)C1C[C@@H](C)O[C@@H](C)C1 (single isomer, unassigned) , please.
11.22
